Measured values drawn from patent US20240002497A1 for this set.

target: T1, rhNav1.7α + β1-β2-β3 (rhesus Nav1.7α co-expressed with Navβ1, Navβ2 and Navβ3 on cells) (rhesus monkey (α subunit); β subunits …); assay: binding FACS, CHO FlpIn cells
T1 construct: also called rhNav1.7-beta1-beta2-beta3; CHO FlpIn rhNav1.7α + β1-β2-β3
Endpoint: EC50 (nM)

| Binder | Endpoint | Value units | Observed measurement |
| --- | --- | --- | --- |
| F010302314 (VHH, also called F0103387G04(L11V, A12V, K33R, R39Q, S50Y, S56D, T60A, G73R, W78V, S79Y, T83R, V89L, N93R, N100cI)) VHH: EVQLVESGGGVVQPGGSLRLSCAASGPVFNINRMAWYRQAPGKQRELVAYVTPTGDISYADSVKGRFTISRDRSKRVYLQMNSLRPEDTALYYCRALLQPDSYSITRTYWGQGTLVTVSS | EC50 | nM | 14 |
| F010301840 (VHH, also called F0103387G04(R76_V78insT)(L11V, A12V, K33R, R39Q, S50Y, S56D, T83R, V89L, N93R)) VHH: EVQLVESGGGVVQPGGSLRLSCAASGPVFNINRMAWYRQAPGKQRELVAYVTPTGDISYTDSVKGRFTISRDGSKRTWSLQMNSLRPEDTALYYCRALLQPDSYSNTRTYWGQGTLVTVSS | EC50 | nM | 48 |
| F010301842 (VHH, also called F0103387G04(L11V, A12V, K33R, R39Q, S50Y, S56D, T60A, T83R, V89L, N93R)) VHH: EVQLVESGGGVVQPGGSLRLSCAASGPVFNINRMAWYRQAPGKQRELVAYVTPTGDISYADSVKGRFTISRDGSKRWSLQMNSLRPEDTALYYCRALLQPDSYSNTRTYWGQGTLVTVSS | EC50 | nM | 7.9 |
| F010301843 (VHH, also called F0103387G04(L11V, A12V, K33R, R39Q, S50Y, S56D, G73N, T83R, V89L, N93R)) VHH: EVQLVESGGGVVQPGGSLRLSCAASGPVFNINRMAWYRQAPGKQRELVAYVTPTGDISYTDSVKGRFTISRDNSKRWSLQMNSLRPEDTALYYCRALLQPDSYSNTRTYWGQGTLVTVSS | EC50 | nM | 9.3 |
